Biological target: Serine/threonine-protein kinase LATS1 (Homo sapiens, UniProt O95835); further: in the data inactive means no Kd found up to 30 µM
Sequence (O95835 whole entry): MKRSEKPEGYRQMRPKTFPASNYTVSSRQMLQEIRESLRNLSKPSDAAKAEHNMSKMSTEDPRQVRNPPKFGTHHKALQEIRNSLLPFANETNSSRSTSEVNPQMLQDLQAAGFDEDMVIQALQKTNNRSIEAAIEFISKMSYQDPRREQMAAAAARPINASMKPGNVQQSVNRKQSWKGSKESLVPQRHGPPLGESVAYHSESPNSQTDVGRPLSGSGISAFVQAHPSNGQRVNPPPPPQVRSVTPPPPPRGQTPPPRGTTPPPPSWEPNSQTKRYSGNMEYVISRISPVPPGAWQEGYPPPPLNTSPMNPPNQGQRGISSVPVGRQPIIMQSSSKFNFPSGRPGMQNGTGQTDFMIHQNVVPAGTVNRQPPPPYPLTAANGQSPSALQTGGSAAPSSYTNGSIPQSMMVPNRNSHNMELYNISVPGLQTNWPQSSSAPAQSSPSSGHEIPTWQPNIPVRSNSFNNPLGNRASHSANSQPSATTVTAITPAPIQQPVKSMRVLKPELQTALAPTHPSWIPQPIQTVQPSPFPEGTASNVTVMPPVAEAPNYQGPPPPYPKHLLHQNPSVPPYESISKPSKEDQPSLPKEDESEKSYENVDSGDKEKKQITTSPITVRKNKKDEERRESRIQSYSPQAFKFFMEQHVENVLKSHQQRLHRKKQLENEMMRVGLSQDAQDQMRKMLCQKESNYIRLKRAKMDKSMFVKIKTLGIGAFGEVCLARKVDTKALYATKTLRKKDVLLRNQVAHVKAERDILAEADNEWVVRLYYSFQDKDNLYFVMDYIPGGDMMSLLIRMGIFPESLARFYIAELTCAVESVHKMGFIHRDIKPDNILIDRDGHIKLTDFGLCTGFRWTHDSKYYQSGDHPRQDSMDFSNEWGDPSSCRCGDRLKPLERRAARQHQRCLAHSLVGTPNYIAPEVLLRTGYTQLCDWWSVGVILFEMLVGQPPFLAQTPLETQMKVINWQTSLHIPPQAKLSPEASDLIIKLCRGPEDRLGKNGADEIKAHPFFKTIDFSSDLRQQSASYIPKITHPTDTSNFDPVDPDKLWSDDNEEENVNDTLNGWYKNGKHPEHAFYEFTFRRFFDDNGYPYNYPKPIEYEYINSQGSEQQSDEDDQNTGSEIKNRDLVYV
Activity calls are given as the source filed them.
Result category, one only: 1.0 = active, 0.0 = inactive

compound | cat
O=c1sn(-c2cccc3ccccc23)c(=O)n1Cc1ccccc1 | 0.0

Returns: the outcome recorded for Cc1cc2c(F)c(Oc3ncnn4cc(OC[C@@H](C)OC(=O)[C@H](C)N)c(C)c34)ccc2[nH]1 [BRIVANIB ALANINATE] in this assay. 0.0

Returns: the outcome recorded for CNC(=O)CN1CCC(Oc2cc3c(Nc4cccc(Cl)c4F)ncnc3cc2OC)CC1 in this assay. 0.0

Returns: the outcome recorded for CC(C)Nc1cc(-c2c[nH]c(C(=O)N[C@H](CO)c3cccc(Cl)c3)c2)c(Cl)cn1 in this assay. 0.0

Returns: the outcome recorded for Cc1ccc(-n2nc(C(C)(C)C)cc2NC(=O)NCc2cc(F)ccc2Oc2ccc3c(cnn3CCO)c2)cc1 in this assay. 0.0

Returns: the outcome recorded for Cc1nc(N)sc1-c1ccnc(Nc2ccc(N3CCOCC3)cc2)n1 in this assay. 1.0

Returns: the outcome recorded for CN1N=C(N)c2cn([C@@H]3O[C@H](COP(=O)(O)O)[C@@H](O)[C@H]3O)c3ncnc1c23 [TRICIRIBINE PHOSPHATE] in this assay. 0.0

Returns: the outcome recorded for CN1CCC(CNc2ccc3ncc(-c4cccc(OC(F)(F)F)c4)n3n2)CC1 in this assay. 0.0
